Values were extracted from patent US20090155285A1.

target_system: T1, mature human TGF-β1 (human, UniProt P01137 279-390)
T1 construct: Bought protein (R&D Systems, Cat # 240-B/CF); also called TGF Beta 1; TGF-b1
T1 sequence (P01137 279-390 limits assumed): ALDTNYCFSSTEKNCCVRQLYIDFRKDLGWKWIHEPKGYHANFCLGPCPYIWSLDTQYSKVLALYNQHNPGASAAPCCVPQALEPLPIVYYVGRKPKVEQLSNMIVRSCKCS
assay_details: BIAcore 2000 SPR, antibody captured on Protein A, TGF-β injected
measurement_kind: koff (s⁻¹)
# value in s⁻¹; strip the unit string

Entry under review: mAb 12.4 (antibody, human IgG4 S228P, kappa, V domains shown, Full-length monoclonal antibody, made by linking the Fab to an IgG4 Fc region) VH: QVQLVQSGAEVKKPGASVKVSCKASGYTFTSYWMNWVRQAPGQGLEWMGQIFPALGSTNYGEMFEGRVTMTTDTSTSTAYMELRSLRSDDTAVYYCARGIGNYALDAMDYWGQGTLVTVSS VL: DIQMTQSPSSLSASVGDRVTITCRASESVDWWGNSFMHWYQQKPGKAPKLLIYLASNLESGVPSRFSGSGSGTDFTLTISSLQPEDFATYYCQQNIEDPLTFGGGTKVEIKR . Reported koff?
6.71e-06

What about mAb 4.17 (antibody, human IgG4 S228P, kappa, V domains shown, Full-length monoclonal antibody, made by linking the Fab to an IgG4 Fc region) VH: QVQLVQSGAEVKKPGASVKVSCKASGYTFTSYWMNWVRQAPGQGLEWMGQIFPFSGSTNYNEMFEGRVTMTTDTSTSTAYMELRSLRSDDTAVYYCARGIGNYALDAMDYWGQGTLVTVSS VL: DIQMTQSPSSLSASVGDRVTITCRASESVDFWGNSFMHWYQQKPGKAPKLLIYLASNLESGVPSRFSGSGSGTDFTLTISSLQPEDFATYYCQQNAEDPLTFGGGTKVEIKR ?
9.71e-06

What about mAb 12.8 (antibody, human IgG4 S228P, kappa, V domains shown, Full-length monoclonal antibody, made by linking the Fab to an IgG4 Fc region) VH: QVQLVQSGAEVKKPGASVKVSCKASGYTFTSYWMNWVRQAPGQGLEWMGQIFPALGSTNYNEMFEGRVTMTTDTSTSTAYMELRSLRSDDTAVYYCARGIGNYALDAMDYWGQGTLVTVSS VL: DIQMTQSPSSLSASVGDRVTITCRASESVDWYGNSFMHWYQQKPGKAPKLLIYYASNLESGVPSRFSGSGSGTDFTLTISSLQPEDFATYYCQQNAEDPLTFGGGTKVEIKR ?
7.92e-06
